TARGET_OR_TEST_SYSTEM: T1, Factor XIIa (alpha-FXIIa) (UniProt P00748;P00748 20-372;373-615)
T1 sequence 1: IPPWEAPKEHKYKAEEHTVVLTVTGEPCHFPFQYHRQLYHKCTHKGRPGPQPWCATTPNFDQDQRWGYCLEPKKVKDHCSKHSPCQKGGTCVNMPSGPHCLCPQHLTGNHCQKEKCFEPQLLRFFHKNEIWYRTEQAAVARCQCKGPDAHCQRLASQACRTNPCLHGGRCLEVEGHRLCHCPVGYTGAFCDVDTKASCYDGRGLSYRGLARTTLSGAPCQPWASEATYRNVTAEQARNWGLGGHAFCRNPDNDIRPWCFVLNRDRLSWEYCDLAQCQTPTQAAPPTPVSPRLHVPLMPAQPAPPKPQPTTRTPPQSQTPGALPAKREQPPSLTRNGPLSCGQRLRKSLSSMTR
T1 sequence 2: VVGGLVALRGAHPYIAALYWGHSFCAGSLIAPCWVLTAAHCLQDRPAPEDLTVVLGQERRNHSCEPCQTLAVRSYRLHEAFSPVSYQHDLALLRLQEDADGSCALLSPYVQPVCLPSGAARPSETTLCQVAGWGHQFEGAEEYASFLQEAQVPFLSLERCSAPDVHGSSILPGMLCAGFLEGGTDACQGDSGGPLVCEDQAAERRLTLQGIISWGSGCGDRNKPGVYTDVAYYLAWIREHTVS
ASSAY_INFO: double-filter nitrocellulose binding
PROPERTY_NAME: Kd (pM)
# number only, unit pM dropped from output

Reported Kd of R4cXII-1t (XNA, all C and U are 2'-fluoro; A and G ribo) RNA: GGCUCGGCUGCCAGCAGGUCACGAGUCGCAGCGACUCGCUGAGGAUCCGAG : 400

The reported measurements were obtained from paper PMC3816843.
